Origin of values: patent US8188059B2

Test system: rat DGAT2 mRNA
assaySummary: Dose-dependent inhibition of DGAT2 in A10 cells, 6.25-200 nM (Example 22, Table 82)
Assay type: cell-based
assayContext: 200.0 nM
Strand notation (5' to 3'): a small letter for the sugar, then the base; units joined by * are phosphorothioate-linked, units joined directly phosphodiester-linked; [ ] holds rarer units or linkages, { } end groups; capitals alone tell only the bases. e = 2'-O-(2-methoxyethyl) (MOE); [5mC] = 5-methylcytosine; d = 2'-deoxy (DNA)
A collection of substances and their measured percent inhibition of DGAT2

{"substance": "372562 (antisense eG*eT*d[5mC]*dT*dT*dG*dG*dA*dG*dG*dG*d[5mC]*e[5mC]*eG) [compound 372562]", "percent inhibition of DGAT2": 75}
{"substance": "372586 (antisense eG*eT*dT*d[5mC]*d[5mC]*dT*dG*dG*dT*dG*dG*dT*e[5mC]*eA) [compound 372586]", "percent inhibition of DGAT2": 77}
{"substance": "372618 (antisense eG*eT*dG*dG*dT*dA*d[5mC]*dA*dG*dG*dT*d[5mC]*eG*eA) [compound 372618]", "percent inhibition of DGAT2": 80}
{"substance": "372602 (antisense e[5mC]*e[5mC]*dA*dG*dG*d[5mC]*dA*dT*dG*dG*dA*dG*e[5mC]*eT) [compound 372602]", "percent inhibition of DGAT2": 76}
{"substance": "372568 (antisense eG*eA*d[5mC]*dA*d[5mC]*dT*dG*d[5mC]*dA*dG*dG*d[5mC]*e[5mC]*eA) [compound 372568]", "percent inhibition of DGAT2": 69}
